Reference for the values: patent US12295396B2

target: hT2R54 (Homo sapiens); construct: expressed in transfected cells; it overexpresses a promiscuous G protein; assay: Cell-based assay for measuring hT2R54 inhibition (FLIPR calcium, Fluo4AM, acetaminophen as bitter agonist); conditions: Table 2; cells stably expressing hT2R54 and a promiscuous G protein; read-out: hT2R54 IC50
metric.name: pIC50
Give bare numbers, as −log10 of the molar value.

Worked cases, answers included:
INSERT INTO assay_data (molecule_smiles, test_system, recorded_value) VALUES
  ('CC(=O)c1cc2c(cc1NC(=O)CN1CCN(C(=O)C3CCCC3)CC1)OCO2', 'hT2R54 (Homo sapiens)', 7.54),
  ('COc1ccccc1CC(=O)N1CCN(CC(=O)Nc2cc3c(cc2OC)OCO3)CC1', 'hT2R54 (Homo sapiens)', 6.22),
  ('CC(=O)c1cc2c(cc1NC(=O)CN1CCN(C(=O)c3cnco3)CC1)OCO2', 'hT2R54 (Homo sapiens)', 7.22);

Then there is this molecule:
Which pIC50 value belongs to CC(=O)c1cc2c(cc1NC(=O)CN1CCN(C(=O)c3ccc(CO)o3)CC1)OCO2 ? 6.64

====

Biological target: hT2R54 (Homo sapiens, UniProt P59534)
Construct: expressed in transfected cells; it overexpresses a promiscuous G protein
Sequence (P59534 1-338): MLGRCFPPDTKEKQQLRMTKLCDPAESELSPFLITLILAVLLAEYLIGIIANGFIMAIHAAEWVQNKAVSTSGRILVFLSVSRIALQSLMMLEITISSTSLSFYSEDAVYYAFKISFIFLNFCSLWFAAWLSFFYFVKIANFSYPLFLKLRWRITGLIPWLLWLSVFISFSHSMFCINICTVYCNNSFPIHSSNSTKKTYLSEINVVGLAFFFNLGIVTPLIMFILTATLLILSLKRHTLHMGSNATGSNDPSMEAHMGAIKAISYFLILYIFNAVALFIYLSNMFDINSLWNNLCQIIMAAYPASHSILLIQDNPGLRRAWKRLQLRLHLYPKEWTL
Assay: Cell-based assay for measuring hT2R54 inhibition (FLIPR calcium, Fluo4AM, acetaminophen as bitter agonist)
Details: Table 2; cells stably expressing hT2R54 and a promiscuous G protein; read-out: hT2R54 IC50
metric.name: pIC50
Give bare numbers, as −log10 of the molar value.

Worked cases, answers included:
INSERT INTO assay_data (molecule, recorded_value) VALUES
  ('CC(=O)c1cc2c(cc1NC(=O)CN1CCN(C(=O)c3ccco3)CC1)OCO2', 8.40),
  ('CC(=O)c1cc2c(cc1NC(=O)CN1CCN(C(=O)c3ccccc3O)CC1)OCO2', 7.10),
  ('CC(=O)c1cc2c(cc1NC(=O)CN1CCN(C(=O)C3CCCCO3)CC1)OCO2 (stereo not drawn)', 7.74),
  ('COc1cccc(CC(=O)N2CCN(CC(=O)Nc3cc4c(cc3C(C)=O)OCO4)CC2)c1', 7.22),
  ('COc1ccccc1CC(=O)N1CCN(CC(=O)Nc2cc3c(cc2C(C)=O)OCO3)CC1', 7.62);

pIC50 of COc1cc2c(cc1NC(=O)CN1CCN(C(=O)Cc3ccncc3)CC1)OCO2 on hT2R54 (Homo sapiens, UniProt P59534)? 5.96

====

Target: hT2R54 (Homo sapiens)
Construct: expressed in transfected cells; it overexpresses a promiscuous G protein
Sequence (P59534 1-338): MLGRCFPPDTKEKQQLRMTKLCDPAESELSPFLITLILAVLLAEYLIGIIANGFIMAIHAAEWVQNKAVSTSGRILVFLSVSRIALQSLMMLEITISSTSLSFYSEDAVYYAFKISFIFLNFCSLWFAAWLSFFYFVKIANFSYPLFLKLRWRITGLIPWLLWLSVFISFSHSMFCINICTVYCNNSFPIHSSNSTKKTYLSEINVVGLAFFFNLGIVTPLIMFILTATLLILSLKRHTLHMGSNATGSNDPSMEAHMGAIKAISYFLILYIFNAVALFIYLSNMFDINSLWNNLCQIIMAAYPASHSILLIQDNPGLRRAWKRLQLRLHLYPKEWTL
Assay: Cell-based assay for measuring hT2R54 inhibition (FLIPR calcium, Fluo4AM, acetaminophen as bitter agonist)
Conditions: Table 8; read-out: hT2R54 IC50
Method: Cells stably expressing hT2R54 and a promiscuous G protein were seeded in 384 well plates 24 hours prior to the experiment. […] Baseline was recorded for 10 seconds, then 25 μl of […] was added onto 25 μl of cells and resulting changes in fluorescence were monitored over an additional 3 minutes. […] The ability of a test compound that blocks bitter taste elicited through hT2R54 was measured in this assay, as follows. […]
metric.name: IC50

Worked cases, answers included:
INSERT INTO results (compound, recorded_value) VALUES
  ('CCCC(=O)N1CCC(CC(=O)Nc2cc3c(cc2C(C)=O)OCO3)CC1 [compound 234]', '> 1 µM'),
  ('CC(=O)c1cc2c(cc1NC(=O)CC1CCN(C(=O)c3ccoc3)CC1)OCO2 [compound 200]', '0.149 µM'),
  ('CCCCC(=O)N1CCC(CC(=O)Nc2cc3c(cc2C(C)=O)OCO3)CC1 [compound 235]', '0.077 µM');

For every item in the list below, what is its measured IC50?
1. CCCOC(=O)N1CCC(CC(=O)Nc2cc3c(cc2C(C)=O)OCO3)C1 (stereo not shown) [compound 269]
2. CC(=O)c1cc2c(cc1NC(=O)CC1CN(C(=O)C3CCCO3)CCO1)OCO2 (stereo not shown) [compound 510]
3. CC(=O)c1cc2c(cc1NC(=O)CC1CCCN(C(=O)CC(C)(C)C)C1)OCO2 (stereo not shown) [compound 207]
4. CC(=O)c1cc2c(cc1NC(=O)CC1CCCN(C(=O)c3ccc(O)cc3O)C1)OCO2 (stereo not shown) [compound 457]
5. CC(=O)c1cc2c(cc1NC(=O)CC1CCCN(C(=O)C3CCCCO3)C1)OCO2 (stereo not shown) [compound 211]

0.103 µM
0.15 µM
0.36 µM
0.14 µM
0.018 µM

For every item in the list below, what is its measured IC50?
1. CC(=O)c1cc2c(cc1NC(=O)CC1CCN(C(=O)[C@H]3CCC(=O)O3)CC1)OCO2 [compound 474]
2. CC(=O)c1cc2c(cc1NC(=O)CC1CCCN(C(=O)C(C)C)C1)OCO2 (stereo not shown) [compound 205]
3. CC(=O)c1cc2c(cc1NC(=O)CC1CCN(C(=O)C3CCCC3)C1)OCO2 (stereo not shown) [compound 266]
4. CC(=O)c1cc2c(cc1NC(=O)CC1CCCN(C(=O)c3cc(O)ccc3O)C1)OCO2 (stereo not shown) [compound 458]
5. CC(=O)c1cc2c(cc1NC(=O)CC1CCN(C(=O)Cc3cccnc3)CC1)OCO2 [compound 250]
6. CC(=O)c1cc2c(cc1NC(=O)CC1CCN(C(C)=O)CC1)OCO2 [compound 232]
7. COc1ccccc1CC(=O)N1CCC(CC(=O)Nc2cc3c(cc2C(C)=O)OCO3)CC1 [compound 255]

["0.13 µM", "0.012 µM", "0.506 µM", "0.16 µM", "0.76 µM", "> 1 µM", "1.3 µM"]
